Listing of recorded z-score by entry.
assay: basal 3T3-L1 adipocyte mitochondrial potential changes, profiling panel, cell-based, JC-1 fluorescence, 3T3-L1 adipocytes, 24 h, 100 nL compound (AID 1168); details: JC-1 mitochondrial fluorescence, higher = more signal, called active from +8 up or from −8 down; also: test concentration not given here
property_name: z-score

> print(dat)
                                   compound  readout.value
1  O=C1NC(=O)C2C1C=CC(C(O)c1c(F)cccc1Cl)N2Nc1ccccn1 (stereo not drawn)         -0.957
2  CC(C)(C)OC(=O)CC[C@]1(C(=O)O)N=C(c2ccc(OCCCO)cc2)O[C@H]1c1ccccc1CN=[N+]=[N-]           1.05
3  CC[C@@H]1[C@H]2C3C(=O)N(CC)C(=O)C3CC(=O)[C@H]2[C@H](c2ccc(C)cc2)N1S(=O)(=O)c1ccc(C)cc1 (stereo partly drawn)          0.438
4  NCCCCCNC(=O)[C@@H]1C[C@@H]2C(=O)N[C@@H](CCCCN)C(=O)N2[C@@H]1c1cccc(OCCO)c1           1.37
5  CCCCN1CC=CC23O[C@@H]4C=CCOC(=O)[C@@H]4[C@H]2C(=O)N(CCCO)[C@@H]3C1=O (stereo partly drawn)          0.111
6  [N-]=[N+]=Nc1ccccc1[C@@H]1OC(c2ccc(OCCCO)cc2)=N[C@]1(CCS(=O)(=O)c1ccccc1)C(=O)NCCN1CCOCC1         -0.783
7  C[C@@H]1ON(c2ccc(C(=O)OC(C)(C)C)cc2)[C@H](c2ccc(Br)cc2)[C@H]1C(=O)N1C(=O)OC[C@H]1Cc1ccccc1         -0.728
8  CC(C)C(O)C1C=CC2C(=O)N(C)C(=O)C2N1N(c1ccccc1)c1ccccc1 (stereo not drawn)         -0.291

Reference source for all entries: PubChem BioAssay
